system: S. aureus EMRSA-15; assay: microbe, parasite or virus in culture; assay type: cell-based, Staphylococcus aureus; conditions: Methicillin-resistant; microbroth dilution, cation-adjusted MHB, 5x10^5 CFU/ml, 37°C, 18–24 h, visible growth; peptides and Vancomycin hydrochloride 512–0.25μg/ml; peptides >70% purity (Cecropin P1 >95%)
No end group written: not given here.
READOUT_TYPE: MIC S. aureus EMRSA-15 (+)

Data point: GAGRWRANRRANRRRFARRLRRNQRRAAQKRRAHARRHQRNLRRAARKIRRIQRR[nh2] (GAGRWRANRRANRRRFARRLRRNQRRAAQKRRAHARRHQRNLRRAARKIRRIQRR-NH2) [nAMP-LP-298, arginine-rich nematode AMP-like peptide conserved across four Clade 9/V gastrointestinal parasites] ; MIC S. aureus EMRSA-15 (+) = 64 µg/mL

* * *

Test system: S. aureus EMRSA-15
Test: microbe, parasite or virus in culture
Type: cell-based, Staphylococcus aureus
Settings: Methicillin-resistant; microbroth dilution, cation-adjusted MHB, 5x10^5 CFU/ml, 37°C, 18–24 h, visible growth; peptides and Vancomycin hydrochloride 512–0.25μg/ml; peptides >70% purity (Cecropin P1 >95%)
Method: Prioritised helminth AMP-LPs were synthesised at >70% purity (Genosphere Biotechnologies). […] Minimum inhibitory concentrations (MICs) were determined for gram-positive and gram-negative bacterial isolates (see Table 3 for species) using microbroth dilution assays as described previously. […] Plates were assessed for visible growth and the MIC was defined as the lowest concentration of peptide or antibiotic that inhibited visible growth of a bacterial culture after an 18–24-hour incubation. […]
READOUT_TYPE: MIC S. aureus EMRSA-15 (+)

Data point: GTFWKAVGAGALIGGGAALLSKAFK[nh2] [nAMP-LP-18, nematode AMP-like peptide identified in four Meloidogyne species] ; MIC S. aureus EMRSA-15 (+) = 64 µg/mL
